Target Under Test: 17β-HSD10 (Homo sapiens)
Construct: Histev (histidine tag with TEV site) (N, cleaved yes)
Sequence (Q99714 1-261): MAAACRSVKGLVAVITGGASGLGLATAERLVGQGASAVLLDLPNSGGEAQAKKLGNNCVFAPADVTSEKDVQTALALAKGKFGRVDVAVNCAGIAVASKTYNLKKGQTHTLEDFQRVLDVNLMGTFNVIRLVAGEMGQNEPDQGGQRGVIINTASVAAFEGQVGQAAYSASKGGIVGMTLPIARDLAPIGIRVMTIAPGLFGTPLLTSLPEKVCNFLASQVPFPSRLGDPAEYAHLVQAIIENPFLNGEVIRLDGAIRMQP
Experiment Description: 17β-HSD10 (ABAD) enzyme inhibition assay, NADH oxidation read at 340 nm (primary screen and dose response)
Condition Description: recombinant 17βHSD10 enzyme assay
pEC50: −log10 of the molar value.
Observed Property: pEC50

{"columns": ["Compound", "Target Under Test", "Observed Property", "Value Reported"],
 "data": [
  ["COc1cccc(-c2ccccc2[C@@H]2CCCN2C(=O)c2sccc2C)c1OC", "17β-HSD10 (Homo sapiens)", "pEC50", 6.15],
  ["Cc1ccsc1C(=O)N1CCC[C@H]1c1ccccc1-c1ccc(C(=O)N(C)C)cc1", "17β-HSD10 (Homo sapiens)", "pEC50", 6.04],
  ["CC(C)CN(C(=O)c1ccccc1F)c1cccc(N(C)Cc2cn[nH]c2I)c1", "17β-HSD10 (Homo sapiens)", "pEC50", 4.96],
  ["CC(C)CN(C(=O)c1ccccc1F)c1cccc(N(C)Cc2cccnc2)c1", "17β-HSD10 (Homo sapiens)", "pEC50", 5.21],
  ["COc1cc(-c2ccccc2[C@@H]2CCCN2C(=O)c2sccc2Cl)ccn1 (racemic)", "17β-HSD10 (Homo sapiens)", "pEC50", 6.22]
]}

[1] CC(C)CN(C(=O)c1ccccc1F)c1cccc(N(CCO)Cc2c[nH]cn2)c1
[2] CC(C)CN(C(=O)c1c(F)cccc1F)c1cccc(N(C)Cc2c[nH]cn2)c1
[3] Cc1ccsc1C(=O)N(CC(C)C)c1cccc(N(C)Cc2c[nH]cn2)c1
[4] CC(C)CN(C(=O)c1ccc(Cl)s1)c1cccc(N(C)Cc2c[nH]cn2)c1
Task: Rank order required: pEC50, descending. Please list the labels in the order you were asked to rank them.
Result: 2, 3, 4, 1
(2: 6.86, 3: 6.40, 4: 5.92, 1: 5.29)

[1] COc1ccccc1C(=O)N(CC(C)C)c1cccc(N(C)Cc2c[nH]cn2)c1
[2] COCCN(C(=O)c1ccccc1F)c1cccc(N(C)Cc2c[nH]cn2)c1
Task: Which entry shows the lesser value of pEC50 here, 1 or 2 ? Refer to your chosen entry by its label in the reply.
Result: 2
